- protocol_notes: AUClast in 5XFAD transgenic B6SJLF1/J mouse plasma at 10 mg/kg, ip by LC-MS/MS analysis
- Assay type: ADME, organism-based
quantity_kind: AUC(0-t) (µM·h)

compound=COc1ccc(-c2c(C)nc3c(N4CC[C@@H](NC(=O)Oc5ccccc5)C4)cc(C)nn23)cc1OC result=22.1

* * *

- target_or_test_system: Sphingomyelin phosphodiesterase 3 (Homo sapiens, UniProt Q9NY59)
- Sequence (Q9NY59 whole entry): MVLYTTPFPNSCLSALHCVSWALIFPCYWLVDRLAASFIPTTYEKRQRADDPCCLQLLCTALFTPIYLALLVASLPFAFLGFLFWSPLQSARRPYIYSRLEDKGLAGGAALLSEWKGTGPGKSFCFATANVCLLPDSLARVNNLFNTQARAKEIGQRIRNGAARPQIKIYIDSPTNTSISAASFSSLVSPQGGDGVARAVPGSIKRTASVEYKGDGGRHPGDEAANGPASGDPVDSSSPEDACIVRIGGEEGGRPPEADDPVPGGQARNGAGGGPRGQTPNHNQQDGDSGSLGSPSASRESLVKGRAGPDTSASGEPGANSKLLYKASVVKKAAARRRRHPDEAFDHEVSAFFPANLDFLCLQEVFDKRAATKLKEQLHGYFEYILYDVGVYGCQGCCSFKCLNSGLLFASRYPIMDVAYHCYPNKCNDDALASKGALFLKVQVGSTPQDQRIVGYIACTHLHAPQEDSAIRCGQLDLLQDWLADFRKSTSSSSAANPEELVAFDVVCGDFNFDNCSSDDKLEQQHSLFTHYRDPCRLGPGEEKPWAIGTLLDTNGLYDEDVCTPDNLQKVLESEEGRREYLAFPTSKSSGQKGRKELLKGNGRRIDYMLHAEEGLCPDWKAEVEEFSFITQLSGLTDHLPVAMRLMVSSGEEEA
- protocol_notes: Inhibition of human recombinant full-length nSMase expressed in HEK293 cells using sphingomyelin as substrate measured after 1 hr by alkaline phosphatase, choline oxidase and horseradish peroxidase dependent H2O2 detection-coupled amplex reagent based fluorescence assay
quantity_kind: IC50

compound=COc1ccc(-c2c(C)oc3c(N4CC[C@@H](NC(C)=O)C4)cc(C)nc23)cc1OC result="> 100 µM"
compound=COc1ccc(-c2c(C)nc3c(NCCNC(C)=O)cc(C)nn23)cc1OC result="> 10 µM"
compound=COc1ccc(-n2c(C)nc3c(N4CC[C@@H](NC(C)=O)C4)nc(C)nc32)cc1OC result="> 100 µM"
compound=COc1ccc(-c2scc3c(N4CC[C@@H](NC(C)=O)C4)nc(C)nc23)cc1OC result="> 100 µM"

* * *

- protocol_notes: Stability in mouse liver microsomes assessed as parent compound remaining at 1 uM measured after 60 mins in absence of NADPH by LC-MS/MS analysis
- Type: ADME, Microsome
- condition_summary: liver microsomes, read-out: Stability
quantity_kind: remaining at 1 h, 1 µM

compound=COc1ccc(-c2c(C)nc3c(N4CC[C@@H](NS(N)(=O)=O)C4)cc(C)nn23)cc1OC result="> 95%"
compound=COc1ccc(-c2c(C)nc3c(N4CC[C@@H](NC(C)=O)C4)cc(C)nn23)cc1OC result="> 95%"
compound=COc1ccc(-c2c(C)nc3c(N4CC[C@@H](OC(C)=O)C4)cc(C)nn23)cc1OC result="> 95%"
compound=COc1ccc(-c2scc3c(N4CC[C@@H](NC(C)=O)C4)nc(C)nc23)cc1OC result="> 95%"
compound=CC(=O)N[C@@H]1CCN(c2cc(C)nn3c(-c4ccc(C#N)cc4)c(C)nc23)C1 result="> 95%"
compound=COc1ccc(-c2c(C)nc3c(N4CCCC4)cc(C)nn23)cc1OC result="> 95%"
compound=COc1ccc(-c2c(C)nc3c(N4CC[C@@H](NS(=O)(=O)c5ccc(C(C)=O)cc5)C4)cc(C)nn23)cc1OC result="> 95%"
compound=COc1ccc(-c2c(C)nc3c(N4CC[C@@H](NS(=O)(=O)c5ccc(C)cc5)C4)cc(C)nn23)cc1OC result="> 95%"
compound=COc1ccc(-c2c(C)nc3c(N4CC[C@@H](NC(C)=O)C4)ccnn23)cc1OC result="> 95%"

* * *

- protocol_notes: Stability in mouse liver microsomes assessed as parent compound remaining at 1 uM measured after 60 mins in absence of NADPH by LC-MS/MS analysis
- Type: ADME, Microsome
- condition_summary: liver microsomes, read-out: Stability
Quick reference: remaining at 1 h, 1 µM of the listed items.
quantity_kind: remaining at 1 h, 1 µM

compound=COc1cc(-c2c(C)nc3c(N4CC[C@@H](NC(C)=O)C4)cc(C)nn23)cc(OC)c1OC result="> 95%"
compound=CCN(CCNC(C)=O)c1cc(C)nn2c(-c3ccc(OC)c(OC)c3)c(C)nc12 result="> 95%"
compound=COc1ccc(-c2cnc3c(N4CC[C@@H](NC(C)=O)C4)cc(C)nn23)cc1OC result="> 95%"

Ref: ChEMBL document CHEMBL4613265
